- Tested System: COX-2 (Homo sapiens, UniProt P35354)
- Sequence (P35354 18-604): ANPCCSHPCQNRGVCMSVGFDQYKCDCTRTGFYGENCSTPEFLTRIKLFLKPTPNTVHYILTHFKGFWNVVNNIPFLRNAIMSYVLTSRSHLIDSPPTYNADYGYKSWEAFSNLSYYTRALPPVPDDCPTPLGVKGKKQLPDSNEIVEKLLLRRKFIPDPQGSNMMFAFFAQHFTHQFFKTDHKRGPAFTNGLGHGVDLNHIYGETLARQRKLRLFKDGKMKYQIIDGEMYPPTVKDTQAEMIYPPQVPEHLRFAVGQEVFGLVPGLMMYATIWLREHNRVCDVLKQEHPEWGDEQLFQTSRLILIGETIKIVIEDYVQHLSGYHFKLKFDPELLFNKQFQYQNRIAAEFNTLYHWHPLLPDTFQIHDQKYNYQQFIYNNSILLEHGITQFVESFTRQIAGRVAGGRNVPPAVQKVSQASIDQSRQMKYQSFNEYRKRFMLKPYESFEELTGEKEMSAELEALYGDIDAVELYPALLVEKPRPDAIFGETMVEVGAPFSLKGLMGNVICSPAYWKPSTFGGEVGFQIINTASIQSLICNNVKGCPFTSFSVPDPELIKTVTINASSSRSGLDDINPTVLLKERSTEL
- Assay Protocol: Human whole blood assay, COX-2 (LPS-induced PGE2 production)
- Assay type: cell-based
- Design: endogenous in cells; host or cells: fresh heparinized human whole blood from volunteers, stimulated with LPS
- Conditions Used: LPS 100 µg/ml, 24 hours at 37°C, read-out: COX-2 (IC50) HWB
pIC50: −log10 of the molar value.
Measured Quantity: pIC50

Answered cases to consult:
Consider CC(CO)OC1=C(c2ccc(S(C)(=O)=O)cc2)C(C)(C)OC1=O (stereo not shown) . Its measured pIC50 is 5.33

pIC50 in this record for C=CC(C)OC1=C(c2ccc(S(C)(=O)=O)cc2)C(C)(C)OC1=O (stereo not shown) : 5.72

For C=C(CF)COC1=C(c2ccc(S(C)(=O)=O)cc2)C(C)(C)OC1=O the compound record lists pIC50 as 6.22

In plain terms, C=CCOC1=C(c2ccc(S(C)(=O)=O)cc2)C(C)(C)OC1=O has a documented pIC50 of 5.74

I = C#CCOC1=C(c2ccc(S(C)(=O)=O)cc2)C(C)(C)OC1=O
II = C=CC(C)(O)COC1=C(c2ccc(S(C)(=O)=O)cc2)C(C)(C)OC1=O (stereo not shown)
Field: entry with larger pIC50 (options I / II ). Mark your answer with the label of the selected entry.
II
